# log10(CC50 at 24 h) per entry
- procedure.text: Cytotoxic assay (MTT, ISO 10993-5:2009(E)), 24 h treatment
- Assay type: cell-based
- test.context: L929 mouse fibroblast cells, L929 mouse fibroblasts, values above highest tested concentration extrapolated
Values are log10 of CC50 at 24 h in µM.

A selection of reference data follows.
# compound, value
records = [
    ("COC(=O)C=C1SC(=NN=Cc2cccc(O)c2)N(c2ccc(Cl)cc2)C1=O", 2.22),
    ("COC(=O)C=C1SC(=NN=Cc2ccccc2O)N(c2ccccc2)C1=O", 2.48),
    ("O=C1CSC(=NN=Cc2ccc(O)cc2)N1c1ccc(Br)cc1", 2.39),
]

Query :: Give the measured log10(CC50 at 24 h) for `O=C1CSC(=NN=Cc2ccc(O)cc2)N1c1ccccc1Cl`
Result :: 2.35

Query :: Give the measured log10(CC50 at 24 h) for `O=C1CSC(=NN=Cc2cccc(O)c2)N1c1ccc(Br)cc1`
Result :: 1.92

Query :: Give the measured log10(CC50 at 24 h) for O=C(O)CC1SC(=NN=Cc2ccc(O)cc2)N(c2ccc(Cl)cc2)C1=O (centres unmarked)
Result :: 2.96
